Test system: GSK3B
Conditions: concentration: 1 μM, replicates: in singlicate; n = 1;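 further: KINOMEscan kinase panel screen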

{"columns": ["Compound", "Unit Annotation", "%Inh"],
 "data": [
  ["O=C(Nc1ccccc1)Nc1ccc(Oc2ccc3nccn3n2)cc1", "%", 0],
  ["Nc1nc(-c2ccc3c(N)n[nH]c3c2)cc(N2CCC[C@@H](C(=O)Nc3ccccc3)C2)n1.O=C(O)C(F)(F)F.O=C(O)C(F)(F)F", "%", 14],
  ["CC(C)(C)OC(=O)NC1CCCN(c2cc(-c3ccc4c(N)n[nH]c4c3)nc(N)n2)C1 (centres unmarked)", "%", 11],
  ["COc1ccc(Nc2nccc(N3CCC(NC(=O)c4cccc(NC(C)=O)c4)C3)n2)cc1 (centres unmarked)", "%", 0],
  ["Cn1cc(-c2ccc3c(c2)CCN3C(=O)Cc2cccc(C(F)(F)F)c2)c2c(N)ncnc21", "%", 0],
  ["O=c1cc(N2CCOCC2)nc2n(Cc3cccc(Cl)c3)ccn12", "%", 7],
  ["O=C(Nc1n[nH]c2nc(-c3ccco3)c(Br)cc12)c1ccc(CN2CCCC2)cc1.O=C(O)[C@H](O)[C@@H](O)C(=O)O", "%", 15],
  ["Cc1ccc(NC(=O)c2cccc(C#N)c2)cc1-c1ccc(C(=O)Nc2ccncc2)cc1", "%", 9]
]}

====

Test system: NDR1
Construct: gene STK38
Details: concentration: 1 μM, replicates: in singlicate; n = 1

{"columns": ["Molecule", "%Inh, %"],
 "data": [
  ["FC(F)(F)c1ccc(-c2nn3ncccc3c2-c2ccnc(Nc3cccc(C(F)(F)F)c3)n2)cc1", 19],
  ["CN1c2ccc(-c3ccc(C(=O)NCCO)cc3)cc2-c2[nH]ncc2S1(=O)=O", 26],
  ["FC(F)(F)c1ccc(-c2cc(-c3c[nH]nc3-c3ccccn3)ccn2)cc1", 22],
  ["CCc1nc(-c2cccc(C)c2)c(-c2ccnc(NC(=O)c3ccccc3)c2)s1", 0],
  ["Nc1nccc2scc(-c3ccc4c(c3)CCN4C(=O)Cc3cc(F)ccc3F)c12", 0],
  ["COc1ccc(NC(=O)Nc2ccc(C)c(-c3ccc(C(=O)Nc4ccncc4)cc3)c2)cc1", 17],
  ["CSc1ccc(NC2=C(c3ccccc3Cl)C(=O)NC2=O)cc1", 31],
  ["CS(=O)(=O)CCNCc1nc(-c2ccc3ncnc(Nc4ccc(OCc5cccc(F)c5)c(Cl)c4)c3c2)cs1.Cl", 0],
  ["COC(=O)c1c(-c2ccccc2)c2cc(Cl)ccc2c(=O)n1Cc1ccc(S(C)(=O)=O)cc1", 0],
  ["O=C(c1ccc(-c2cc(-c3c[nH]nc3-c3ccccn3)ccn2)cc1)N1CCCC1", 21],
  ["Nc1nc(-c2ccc3c(N)n[nH]c3c2)cc(N2CCCCC2)n1", 0],
  ["Nc1nc(-c2ccc3c(N)n[nH]c3c2)cc(N2CCC[C@@H](C(=O)Nc3ccccc3)C2)n1.O=C(O)C(F)(F)F.O=C(O)C(F)(F)F", 1],
  ["CCCc1ccc(S(=O)(=O)NC2CCN(c3ccnc(Nc4ccc(OC)cc4)n3)C2)cc1 (centres unmarked)", 0],
  ["O=C(NCCCN1CCCC1=O)c1cnc(NCc2cc(Cl)ccc2Cl)nc1NC1CCNCC1", 0],
  ["Cc1ccc(O)cc1Nc1cc(C(F)(F)F)nc2ccc(-c3ccncc3)cc12", 0],
  ["CCC(CC)(CC)n1cnc2c(N)ncnc21", 42],
  ["Cl.Cn1ccc(-c2cccc(Nc3ccnc4cc(-c5nccs5)ccc34)c2)n1", 19]
]}
